PROCEDURE TEXT: Stability of Prodrug 2-1 in plasma (mouse)
Assay type: in vitro ADME
Property: half-life; scope: individual compounds
MEASURED PARAMETER: half-life (h)

COMPOUND	MEASURED PARAMETER	UNITS TEXT	DATA VALUE
C[C@H](Cc1ccc2c(c1)OCO2)NC(=O)CCCO[N+](=O)[O-] [Compound 2-1]	half-life	h	26.2
CC(C)[N+](C)(CCOC(=O)C1c2ccccc2Oc2ccccc21)C(C)C [Propantheline, reference compound]	half-life	h	0.449

* * *

PROCEDURE TEXT: Stability in SGF with pepsin
Format: in vitro ADME

COMPOUND STRUCTURE STRING	half-life
C[C@H](Cc1ccc2c(c1)OCO2)NC(=O)CCCO[N+](=O)[O-]	13.5 h

* * *

PROCEDURE TEXT: Stability of Prodrug 2-1 in plasma (human)
Format: in vitro ADME

COMPOUND	UNITS TEXT	half-life
CC(C)[N+](C)(CCOC(=O)C1c2ccccc2Oc2ccccc21)C(C)C [Propantheline, reference compound]	min	14.8
C[C@H](Cc1ccc2c(c1)OCO2)NC(=O)CCCO[N+](=O)[O-]	min	909
